// reported half-life at 1 µM for each item listed
- protocol_text: Plasma stability, human
- Format: in vitro ADME
- settings: read-out: Plasma t1/2 Human

compound	half-life at 1 µM
CC(C)CC(C(=O)N[C@H](C(=O)Nc1ccc(Cl)c(Cl)c1)C(C)C)P(=O)(O)O (stereo partly drawn)	> 2.5 h

Req: Note down half-life at 1 µM recorded for CC(C)CC(C(=O)N[C@H](C(=O)Nc1ccc(Cl)c(Cl)c1)C1CCCCC1)P(=O)(O)O (stereo partly drawn)
Resp: > 2.5 h

Req: Note down half-life at 1 µM recorded for CC(=O)c1ccc(NC(=O)[C@@H](NC(=O)[C@@H](CC(C)C)P(=O)(O)O)C(C)C)cc1 [(R)‐30]
Resp: > 2.5 h

* * *

- protocol_text: Kinetic solubility in PBS pH 7.4
- Format: physicochemical
- settings: aqueous buffer, kinetic from dmso stock
// reported solubility kinetic at 5 min for each item listed

compound	reported_measurement
CC(C)C[C@H](C(=O)N[C@H](C(=O)Nc1ccc(-n2ccnc2)cc1)C(C)C)P(=O)(O)O [(R)‐36]	> 200 µM
CC(=O)c1ccc(NC(=O)[C@@H](NC(=O)[C@@H](CC(C)C)P(=O)(O)O)C(C)C)cc1 [(R)‐30]	> 200 µM
CC(C)CC(C(=O)N[C@H](C(=O)Nc1ccc(Cl)c(Cl)c1)C1CCCCC1)P(=O)(O)O (stereo partly drawn)	> 200 µM

Req: Note down solubility kinetic at 5 min recorded for CC(C)CC(C(=O)N[C@H](C(=O)Nc1ccc(Cl)c(Cl)c1)C1CCC1)P(=O)(O)O (stereo partly drawn)
Resp: > 200 µM

Req: Note down solubility kinetic at 5 min recorded for CC(=O)c1ccc(NC(=O)[C@@H](NC(=O)C(CC(C)C)P(=O)(O)O)C(C)C)cc1 (stereo partly drawn)
Resp: > 200 µM

Req: Note down solubility kinetic at 5 min recorded for CC(C)CC(C(=O)N[C@H](C(=O)Nc1ccc(Cl)c(Cl)c1)C(C)C)P(=O)(O)O (stereo partly drawn)
Resp: > 200 µM

* * *

- protocol_text: Stability in minipig liver microsomes
- Type: in vitro ADME
- settings: Göttingen, read-out: Minipig Liver Microsomes t1/2
measurement_label: half-life at 1 µM

Req: Note down half-life at 1 µM recorded for CC(=O)c1ccc(NC(=O)[C@@H](NC(=O)C(CC(C)C)P(=O)(O)O)C(C)C)cc1 (stereo partly shown)
Resp: > 2 h

* * *

- protocol_text: Plasma stability, Wistar rat
- Type: in vitro ADME
- settings: read-out: Rat Plasma t1/2
measurement_label: half-life at 1 µM

Req: Note down half-life at 1 µM recorded for CC(=O)c1ccc(NC(=O)[C@@H](NC(=O)C(CC(C)C)P(=O)(O)O)C(C)C)cc1 (stereo partly shown) [compound 30]
Resp: > 240 min

* * *

- protocol_text: Stability in rat liver microsomes
- Assay type: in vitro ADME
- settings: Wistar, read-out: Rat Liver Microsomes t1/2
- Method: Samples were stored on ice until the end of the incubation and precipitated protein was removed by centrifugation (15 min, 4 °C, 4,000 g). Concentration of the remaining test […] compound at the different time points was analyzed by HPLC-MS/MS (TSQ Quantum Access […] MAX, Thermo Fisher, Dreieich, Germany) and used to determine half -life (t1/2) and intrinsic […] Table S2: Additional in vitro ADMET data for selected dipeptides. n.d.: not determined. […]
measurement_label: half-life at 1 µM

Req: Note down half-life at 1 µM recorded for CC(=O)c1ccc(NC(=O)[C@@H](NC(=O)C(CC(C)C)P(=O)(O)O)C(C)C)cc1 (stereo partly shown)
Resp: > 2 h
